# Test system: NCI-H661
# ASSAY REMARKS: relative viability (nuclei count vs DMSO), 5 days (fraction); higher = more cells survive
# COND: first compound 0.08 µM
Quick reference: relative viability of the listed items.
ENDPOINT: relative viability

>>> value_observed("O=c1cc(-c2cccc3c2Sc2ccccc2S3)oc(N2CCOCC2)c1 + CC(C)C[C@H](NC(=O)[C@H](Cc1ccccc1)NC(=O)c1cnccn1)B(O)O [Bortezomib] (partner 0.002 µM)")
0.808
>>> value_observed("O=c1cc(-c2cccc3c2Sc2ccccc2S3)oc(N2CCOCC2)c1 + Cc1nc(Nc2ncc(C(=O)Nc3c(C)cccc3Cl)s2)cc(N2CCN(CCO)CC2)n1 [Dasatinib] (partner 0.075 µM)")
0.779
>>> value_observed("O=c1cc(-c2cccc3c2Sc2ccccc2S3)oc(N2CCOCC2)c1 + N=C(N)NC(=N)NCCc1ccccc1 [Phenformin] (partner 250 µM)")
0.269
>>> value_observed("O=c1cc(-c2cccc3c2Sc2ccccc2S3)oc(N2CCOCC2)c1 + Nc1nc2[nH]cc(CCc3ccc(C(=O)N[C@@H](CCC(=O)O)C(=O)O)cc3)c2c(=O)[nH]1 [Pemetrexed] (partner 0.2 µM)")
0.9
>>> value_observed("O=c1cc(-c2cccc3c2Sc2ccccc2S3)oc(N2CCOCC2)c1 + CS(=O)(=O)CCNCc1ccc(-c2ccc3ncnc(Nc4ccc(OCc5cccc(F)c5)c(Cl)c4)c3c2)o1 [Lapatinib] (partner 2 µM)")
0.481

====

# System: NCI-H2009
# ASSAY REMARKS: relative viability (nuclei count vs DMSO), 5 days (fraction); higher = more cells survive
# COND: first compound 2.53 µM
ENDPOINT: relative viability

>>> value_observed("COc1nc(C)cnc1NS(=O)(=O)c1cccnc1-c1ccc(-c2nnco2)cc1 [Zibotentan] + C[C@@H](Oc1cc(-c2cnn(C3CCNCC3)c2)cnc1N)c1c(Cl)ccc(F)c1Cl [Crizotinib] (partner 1 µM)")
1.06
>>> value_observed("COc1nc(C)cnc1NS(=O)(=O)c1cccnc1-c1ccc(-c2nnco2)cc1 [Zibotentan] + O=C(c1cc(Cc2n[nH]c(=O)c3ccccc23)ccc1F)N1CCN(C(=O)C2CC2)CC1 [Olaparib] (partner 8 µM)")
0.787

====

# Tested on: NCI-H2126
# ASSAY REMARKS: relative viability (nuclei count vs DMSO), 5 days (fraction); higher = more cells survive
# COND: first compound 0.2 µM
relative viability by entry:
ENDPOINT: relative viability

>>> value_observed("COCC1(CO)C(=O)C2CCN1CC2 (stereo not drawn) [PRIMA-1MET] + O=C(c1cc(Cc2n[nH]c(=O)c3ccccc23)ccc1F)N1CCN(C(=O)C2CC2)CC1 [Olaparib] (partner 8 µM)")
0.908
>>> value_observed("COCC1(CO)C(=O)C2CCN1CC2 (stereo not drawn) [PRIMA-1MET] + CC(=O)Nc1cccc(-n2c(=O)n(C3CC3)c(=O)c3c(Nc4ccc(I)cc4F)n(C)c(=O)c(C)c32)c1 [Trametinib] (partner 0.02 µM)")
0.604
>>> value_observed("COCC1(CO)C(=O)C2CCN1CC2 (stereo not drawn) [PRIMA-1MET] + Nc1nc2[nH]cc(CCc3ccc(C(=O)N[C@@H](CCC(=O)O)C(=O)O)cc3)c2c(=O)[nH]1 [Pemetrexed] (partner 0.2 µM)")
0.657

====

# Tested on: HCC-44
# ASSAY REMARKS: relative viability (nuclei count vs DMSO), 5 days (fraction); higher = more cells survive
# COND: first compound 0.01 µM
Each entry below carries its recorded relative viability.
ENDPOINT: relative viability

>>> value_observed("O=c1cc(N2CCOCC2)oc2c(-c3cccc4c3sc3ccccc34)cccc12 + NC(=O)Nc1cc(-c2cccc(F)c2)sc1C(=O)N[C@H]1CCCNC1 [AZD7762] (partner 0.2 µM)")
1.03
>>> value_observed("CCN(CC)CCCCNc1ncc2cc(-c3cc(OC)cc(OC)c3)c(NC(=O)NC(C)(C)C)nc2n1 + CCNC(=O)c1noc(-c2cc(C(C)C)c(O)cc2O)c1-c1ccc(CN2CCOCC2)cc1 [Luminespib] (partner 0.01 µM)")
1.07
>>> value_observed("CCN(CC)CCCCNc1ncc2cc(-c3cc(OC)cc(OC)c3)c(NC(=O)NC(C)(C)C)nc2n1 + N=C(N)NC(=N)NCCc1ccccc1 [Phenformin] (partner 250 µM)")
0.189
>>> value_observed("O=c1cc(N2CCOCC2)oc2c(-c3cccc4c3sc3ccccc34)cccc12 + C[C@]1(O)C[C@@H](c2nc(-c3ccc4ccc(-c5ccccc5)nc4c3)c3c(N)nccn32)C1 [Linsitinib] (partner 1 µM)")
0.748
>>> value_observed("O=c1cc(N2CCOCC2)oc2c(-c3cccc4c3sc3ccccc34)cccc12 + O=C(c1cc(Cc2n[nH]c(=O)c3ccccc23)ccc1F)N1CCN(C(=O)C2CC2)CC1 [Olaparib] (partner 8 µM)")
1.01

====

Quick reference: relative viability of the listed items.
# System: COR-L 105
# ASSAY REMARKS: relative viability (nuclei count vs DMSO), 5 days (fraction); higher = more cells survive
# COND: first compound 0.08 µM
ENDPOINT: relative viability

>>> value_observed("COc1nc(C)cnc1NS(=O)(=O)c1cccnc1-c1ccc(-c2nnco2)cc1 [Zibotentan] + Nc1nc2[nH]cc(CCc3ccc(C(=O)N[C@@H](CCC(=O)O)C(=O)O)cc3)c2c(=O)[nH]1 [Pemetrexed] (partner 0.2 µM)")
1.08
>>> value_observed("COc1nc(C)cnc1NS(=O)(=O)c1cccnc1-c1ccc(-c2nnco2)cc1 [Zibotentan] + CCNC(=O)c1noc(-c2cc(C(C)C)c(O)cc2O)c1-c1ccc(CN2CCOCC2)cc1 [Luminespib] (partner 0.01 µM)")
0.938
>>> value_observed("COc1nc(C)cnc1NS(=O)(=O)c1cccnc1-c1ccc(-c2nnco2)cc1 [Zibotentan] + CS(=O)(=O)N1CCN(Cc2cc3nc(-c4cccc5[nH]ncc45)nc(N4CCOCC4)c3s2)CC1 [Pictilisib] (partner 1 µM)")
0.523
>>> value_observed("COc1nc(C)cnc1NS(=O)(=O)c1cccnc1-c1ccc(-c2nnco2)cc1 [Zibotentan] + CC(C)C[C@H](NC(=O)[C@H](Cc1ccccc1)NC(=O)c1cnccn1)B(O)O [Bortezomib] (partner 0.002 µM)")
0.819
>>> value_observed("COc1nc(C)cnc1NS(=O)(=O)c1cccnc1-c1ccc(-c2nnco2)cc1 [Zibotentan] + O=C(c1cc(Cc2n[nH]c(=O)c3ccccc23)ccc1F)N1CCN(C(=O)C2CC2)CC1 [Olaparib] (partner 8 µM)")
0.68
>>> value_observed("O=c1cc(-c2cccc3c2Sc2ccccc2S3)oc(N2CCOCC2)c1 + Cc1nc(Nc2ncc(C(=O)Nc3c(C)cccc3Cl)s2)cc(N2CCN(CCO)CC2)n1 [Dasatinib] (partner 0.075 µM)")
0.311
>>> value_observed("COc1nc(C)cnc1NS(=O)(=O)c1cccnc1-c1ccc(-c2nnco2)cc1 [Zibotentan] + CC(=O)c1c(C)c2cnc(Nc3ccc(N4CCNCC4)cn3)nc2n(C2CCCC2)c1=O [Palbociclib] (partner 0.5 µM)")
0.381
>>> value_observed("COc1nc(C)cnc1NS(=O)(=O)c1cccnc1-c1ccc(-c2nnco2)cc1 [Zibotentan] + Nc1ncn([C@H]2C[C@H](O)[C@@H](CO)O2)c(=O)n1 [Decitabine] (partner 2 µM)")
0.634
>>> value_observed("COc1nc(C)cnc1NS(=O)(=O)c1cccnc1-c1ccc(-c2nnco2)cc1 [Zibotentan] + CC(=O)Nc1cccc(-n2c(=O)n(C3CC3)c(=O)c3c(Nc4ccc(I)cc4F)n(C)c(=O)c(C)c32)c1 [Trametinib] (partner 0.02 µM)")
0.403
>>> value_observed("O=c1cc(-c2cccc3c2Sc2ccccc2S3)oc(N2CCOCC2)c1 + Nc1ncn([C@H]2C[C@H](O)[C@@H](CO)O2)c(=O)n1 [Decitabine] (partner 2 µM)")
0.603

====

# System: HCC-15
# ASSAY REMARKS: relative viability (nuclei count vs DMSO), 5 days (fraction); higher = more cells survive
# COND: first compound 0.3162 µM
ENDPOINT: relative viability

>>> value_observed("O=c1cc(N2CCOCC2)oc2c(-c3cccc4c3sc3ccccc34)cccc12 + Cc1cc(Nc2cc(N3CCN(C)CC3)nc(Sc3ccc(NC(=O)C4CC4)cc3)n2)n[nH]1 [Tozasertib] (partner 0.1 µM)")
0.33
>>> value_observed("CCN(CC)CCCCNc1ncc2cc(-c3cc(OC)cc(OC)c3)c(NC(=O)NC(C)(C)C)nc2n1 + COc1cc2c(Oc3ccc(NC(=O)C4(C(=O)Nc5ccc(F)cc5)CC4)cc3F)ccnc2cc1OCCCN1CCOCC1 [Foretinib] (partner 0.25 µM)")
1.1
>>> value_observed("O=c1cc(N2CCOCC2)oc2c(-c3cccc4c3sc3ccccc34)cccc12 + Cc1nc(NC(=O)N2CCC[C@H]2C(N)=O)sc1-c1ccnc(C(C)(C)C(F)(F)F)c1 [Alpelisib] (partner 2 µM)")
0.859
>>> value_observed("O=c1cc(N2CCOCC2)oc2c(-c3cccc4c3sc3ccccc34)cccc12 + COc1cccc2cc(-c3nc([C@H]4CC[C@H](C(=O)O)CC4)n4ncnc(N)c34)[nH]c12 [OSI-027] (partner 0.5 µM)")
0.688
